Procedure summary: Hematology assays in cynomolgus monkeys (Example 45)
Format: in vivo
Cond: day 15
The threshold is 400000 µL⁻¹. Values of platelet count beneath it are tagged label 1; values meeting or exceeding it are tagged label 0.

Item ISIS 416838: MOE gapmer, nucleobases 1018 to 1042 of SEQ ID NO: 1 (Table 6) (antisense GCAACCGGGATGATGAGTGC; MOE gapmer, wing and gap sizes not given here) : platelet count beneath 400000 µL⁻¹, strictly?
label 1

Does this substance meet the criterion platelet count < 400000 µL⁻¹? ISIS 416864: MOE gapmer, nucleobases 1275 to 1318 of SEQ ID NO: 1 (Table 8) (antisense GGCAGCGGACGGCATTGGTG; MOE gapmer, wing and gap sizes not given here)
label 0

Does the reported platelet count of the following substance sit strictly below 400000 µL⁻¹? ISIS 416850: MOE gapmer, nucleobases 1275 to 1318 of SEQ ID NO: 1 (Table 8) (antisense TGCACAGTTTCTGGCAGGCC; MOE gapmer, wing and gap sizes not given here)
label 0

* * *

Procedure summary: Liver function, ALT, AST, bilirubin in cynomolgus monkeys (Example 46)
Assay type: in vivo
Cond: Day −14; plasma
Strand notation (5' to 3'): a small letter for the sugar, then the base; units joined by * are phosphorothioate-linked, units joined directly phosphodiester-linked; [ ] holds rarer units or linkages, { } end groups; capitals alone tell only the bases. e = 2'-O-(2-methoxyethyl) (MOE); [5mC] = 5-methylcytosine; d = 2'-deoxy (DNA)
Assay readout: Bilirubin (mg/dL)
Note: unit mg/dL is implicit; provide only the numeric part.

Quick check: Bilirubin of ISIS 449710: 3-8-3, 4-8-4, 2-10-2, 3-10-3 or 4-10-4 MOE microwalk gapmer (Table 46) (antisense e[5mC]*eA*e[5mC]*dA*dG*dT*dT*dT*d[5mC]*dT*dG*dG*d[5mC]*eA*eG*eG) ?
0.24

What does the data say about its Bilirubin? Entry: ISIS 416858: MOE gapmer, nucleobases 1275 to 1318 of SEQ ID NO: 1 (Table 8) (antisense ACGGCATTGGTGCACAGTTT; MOE gapmer, wing and gap sizes not given here)
0.25

Look up Bilirubin for this substance: ISIS 449707: 3-8-3, 4-8-4, 2-10-2, 3-10-3 or 4-10-4 MOE microwalk gapmer (Table 46) (antisense e[5mC]*eA*e[5mC]*eA*dG*dT*dT*dT*d[5mC]*dT*dG*dG*e[5mC]*eA*eG*eG)
0.27

Please look up its Bilirubin: ISIS 449711: 3-8-3, 4-8-4, 2-10-2, 3-10-3 or 4-10-4 MOE microwalk gapmer (Table 46) (antisense eA*e[5mC]*dA*dG*dT*dT*dT*d[5mC]*dT*dG*dG*d[5mC]*eA*eG)
0.23

* * *

Cond: rat, in vivo, sc, 50 mg/kg
e = 2'-O-(2-methoxyethyl) (MOE); d = 2'-deoxy (DNA)
Assay readout: Lymphocyte (%)
Hi! Could you send only the number? It should be in %, unit omitted.

Look at this substance and give its reported Lymphocyte. ISIS 445513: 5-8-5 or 6-8-6 MOE microwalk gapmer (Table 44) (antisense GCAGCGGACGGCATTGGTGC; sugars from the 5' end e6 d8 e6, backbone and methylation of C not given here)
82

Can you share its Lymphocyte? I mean this substance: ISIS 445530: 5-8-5 or 6-8-6 MOE microwalk gapmer (Table 44) (antisense GCATTGGTGCACAGTTTC; sugars from the 5' end e5 d8 e5, backbone and methylation of C not given here)
87

Entry ISIS 445498: 5-8-5 or 6-8-6 MOE microwalk gapmer (Table 44) (antisense GGTGCACAGTTTCTGGCAGG; sugars from the 5' end e6 d8 e6, backbone and methylation of C not given here) has what Lymphocyte?
89

I have this substance here, ISIS 445505: 5-8-5 or 6-8-6 MOE microwalk gapmer (Table 44) (antisense CGGCATTGGTGCACAGTTTC; sugars from the 5' end e6 d8 e6, backbone and methylation of C not given here) , and I need its recorded Lymphocyte.
87

Record request: Lymphocyte value, item ISIS 445504: 5-8-5 or 6-8-6 MOE microwalk gapmer (Table 44) (antisense GGCATTGGTGCACAGTTTCT; sugars from the 5' end e6 d8 e6, backbone and methylation of C not given here)
87

Query: Lymphocyte; subject: ISIS 445509: 5-8-5 or 6-8-6 MOE microwalk gapmer (Table 44) (antisense CGGACGGCATTGGTGCACAG; sugars from the 5' end e6 d8 e6, backbone and methylation of C not given here)
84
